This collection of values is drawn from paper PMC4667280.

# measured-target: MsFadD32 (full-length FadD32 from M. smegmatis) (Mycolicibacterium smegmatis, UniProt A0R618)
# Construct: full-length (N-terminal domain 1-483, C-terminal domain 484-630), expressed in E. coli BL21(DE3) as SUMO (SMT3) fusion; crystal of the SUMO fusion
# Sequence (A0R618 whole entry, the tested form may be a part): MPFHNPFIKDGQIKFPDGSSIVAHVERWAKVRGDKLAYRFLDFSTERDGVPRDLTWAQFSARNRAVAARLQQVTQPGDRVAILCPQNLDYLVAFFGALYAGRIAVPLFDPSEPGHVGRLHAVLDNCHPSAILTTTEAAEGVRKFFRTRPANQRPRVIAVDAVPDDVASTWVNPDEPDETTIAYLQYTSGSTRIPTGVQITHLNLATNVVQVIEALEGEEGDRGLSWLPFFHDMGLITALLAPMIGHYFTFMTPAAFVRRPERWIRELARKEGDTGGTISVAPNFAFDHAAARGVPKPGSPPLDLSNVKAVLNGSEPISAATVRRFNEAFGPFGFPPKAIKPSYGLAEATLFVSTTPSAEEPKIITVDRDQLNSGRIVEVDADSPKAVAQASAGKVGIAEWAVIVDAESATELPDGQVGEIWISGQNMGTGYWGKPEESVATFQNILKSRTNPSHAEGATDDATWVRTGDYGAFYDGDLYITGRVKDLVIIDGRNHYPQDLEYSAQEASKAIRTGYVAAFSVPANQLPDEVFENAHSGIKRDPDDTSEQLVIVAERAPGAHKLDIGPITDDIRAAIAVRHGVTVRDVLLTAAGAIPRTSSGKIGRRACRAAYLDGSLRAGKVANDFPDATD
# experiment-description: isothermal titration calorimetry; crystal structure of the complex at […] Å
outcome-measure: Kd

compound="Nc1ncnc2c1ncn2[C@@H]1O[C@H](COP(=O)(O)OP(=O)(O)OP(=O)(O)O)[C@@H](O)[C@H]1O [ATP]" outcome_measure=Kd recorded_value="~36 µM"
